The reported measurements were obtained from patent USRE43802E1.

For each of the compounds below, state its TD50 (nM).
# System: CEM cells
# protocol: Intrinsic toxicity of test compound in uninfected CEM cells (MTT)
# Type: cell-based
# test_settings: Table 21

Ask: Query: TD50 (nM); subject: COc1ccc(S(=O)(=O)N(CC(C)C)C[C@@H](O)[C@H](Cc2ccccc2)NC(=O)OCc2ccc[n+]([O-])c2)cc1 [Example 25]
Result: 167,000 nM

Ask: Query: TD50 (nM); subject: COc1ccc(S(=O)(=O)N(CC(C)C)C[C@@H](O)[C@H](Cc2ccccc2)NC(=O)OC(C)(C)C)cc1 [Example 27]
Result: 300,000 nM

Ask: Query: TD50 (nM); subject: COc1ccc(S(=O)(=O)N(CC(C)C)C[C@@H](O)[C@H](Cc2ccccc2)NC(=O)c2ccccc2Cl)cc1 [Example 30]
Result: 154,000 nM

Ask: Query: TD50 (nM); subject: COc1ccc(S(=O)(=O)N(CC(C)C)C[C@@H](O)[C@H](Cc2ccccc2)NC(=O)OCc2ccncc2)cc1 [Example 22]
Result: 31,000 nM

Ask: Query: TD50 (nM); subject: CC(C)CN(C[C@@H](O)[C@H](Cc1ccccc1)NC(=O)OCc1cccnc1)S(=O)(=O)c1ccccc1 [Example 16]
Result: 62,000 nM

Ask: Query: TD50 (nM); subject: COc1ccc(S(=O)(=O)N(CC(C)C)C[C@@H](O)[C@H](Cc2ccccc2)NC(=O)c2ccccc2)cc1 [Example 28]
Result: 213,000 nM

Ask: Query: TD50 (nM); subject: COc1ccc(S(=O)(=O)N(CC(C)C)C[C@@H](O)[C@H](Cc2ccccc2)NC(=O)OCc2cccnc2)cc1 [Example 17]
Result: 59,000 nM

Ask: Query: TD50 (nM); subject: COc1ccc(S(=O)(=O)N(CC(C)C)C[C@@H](O)[C@H](Cc2ccccc2)NC(=O)c2ccccc2C)cc1 [Example 29]
Result: 196,000 nM

Ask: Query: TD50 (nM); subject: COc1ccc(S(=O)(=O)N(CC(C)C)C[C@@H](O)[C@H](Cc2ccccc2)NC(=O)c2c(C)cccc2C)cc1 [Example 32]
Result: 17,000 nM
